molecular target: PPARγ (Homo sapiens); assay: PPAR-gamma EC50, functional cell (transactivation) assay

{"SMILES INPUT": "Cc1cc(S(=O)(=O)N2CCN(C3CCCCC3)CC2)ccc1OC(C)(C)C(=O)O", "MEASURED TARGET": "PPARγ (Homo sapiens)", "EC50": "> 100 µM"}
{"SMILES INPUT": "Cc1cc(S(=O)(=O)N2CCN(CC3CCCCC3)CC2)ccc1OC(C)(C)C(=O)O", "MEASURED TARGET": "PPARγ (Homo sapiens)", "EC50": "1 to 100 µM"}
{"SMILES INPUT": "Cc1ccc(N2CCN(S(=O)(=O)c3ccc(OC(C)(C)C(=O)O)cc3)CC2)c(C)c1", "MEASURED TARGET": "PPARγ (Homo sapiens)", "EC50": "> 100 µM"}
{"SMILES INPUT": "Cc1ccc(C)c(N2CCN(S(=O)(=O)c3ccc(OC(C)(C)C(=O)O)c(C)c3)CC2)c1", "MEASURED TARGET": "PPARγ (Homo sapiens)", "EC50": "1 to 100 µM"}
{"SMILES INPUT": "Cc1cc(S(=O)(=O)N2CCN(C(c3ccccc3)c3ccccc3)CC2)ccc1OC(C)(C)C(=O)O", "MEASURED TARGET": "PPARγ (Homo sapiens)", "EC50": "1 to 100 µM"}
{"SMILES INPUT": "Cc1cc(S(=O)(=O)N2CCN(c3cccc(Br)c3)CC2)ccc1OC(C)(C)C(=O)O", "MEASURED TARGET": "PPARγ (Homo sapiens)", "EC50": "1 to 100 µM"}
{"SMILES INPUT": "COc1ccc(N2CCN(S(=O)(=O)c3ccc(OC(C)(C)C(=O)O)c(C)c3)CC2)cc1", "MEASURED TARGET": "PPARγ (Homo sapiens)", "EC50": "1 to 100 µM"}
{"SMILES INPUT": "CC(C)(Oc1ccc(S(=O)(=O)N2CCN(c3ccccc3F)CC2)cc1)C(=O)O", "MEASURED TARGET": "PPARγ (Homo sapiens)", "EC50": "> 100 µM"}
{"SMILES INPUT": "Cc1cc(S(=O)(=O)N2CCN(c3ccccc3C#N)CC2)ccc1OC(C)(C)C(=O)O", "MEASURED TARGET": "PPARγ (Homo sapiens)", "EC50": "1 to 100 µM"}

----------
biological target: PPARγ (Homo sapiens, UniProt P37231); test: PPAR-gamma EC50, functional cell (transactivation) assay
Sequence (P37231 238-503 limits assumed): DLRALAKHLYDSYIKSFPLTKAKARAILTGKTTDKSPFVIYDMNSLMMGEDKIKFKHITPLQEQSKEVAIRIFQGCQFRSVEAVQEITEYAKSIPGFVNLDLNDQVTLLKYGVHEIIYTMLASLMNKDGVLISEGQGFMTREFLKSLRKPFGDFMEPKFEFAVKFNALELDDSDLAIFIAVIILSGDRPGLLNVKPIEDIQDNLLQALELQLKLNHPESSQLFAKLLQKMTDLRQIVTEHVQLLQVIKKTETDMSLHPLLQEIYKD
EC50: recorded values

{"COMPOUND": "Cc1cc(S(=O)(=O)N2CCN(C(c3ccc(F)cc3)c3ccc(F)cc3)CC2)ccc1OC(C)(C)C(=O)O", "EC50": "1 to 100 µM"}
{"COMPOUND": "Cc1cc(S(=O)(=O)N2CCN(C(c3ccccc3)c3ccc(Cl)cc3)CC2)ccc1OC(C)(C)C(=O)O (centres unmarked) [drawing 116]", "EC50": "1 to 100 µM"}
{"COMPOUND": "CCOc1ccccc1N1CCN(S(=O)(=O)c2ccc(OC(C)(C)C(=O)O)c(C)c2)CC1", "EC50": "1 to 100 µM"}
{"COMPOUND": "COc1ccc(N2CCN(S(=O)(=O)c3ccc(OC(C)(C)C(=O)O)c(C)c3)CC2)cc1OC", "EC50": "1 to 100 µM"}
{"COMPOUND": "Cc1cc(S(=O)(=O)N2CCN(C/C=C/c3ccccc3)CC2)ccc1OC(C)(C)C(=O)O", "EC50": "1 to 100 µM"}

----------
Biological target: UniProtKB Q03181
Sequence (Q03181 211-439 limits assumed): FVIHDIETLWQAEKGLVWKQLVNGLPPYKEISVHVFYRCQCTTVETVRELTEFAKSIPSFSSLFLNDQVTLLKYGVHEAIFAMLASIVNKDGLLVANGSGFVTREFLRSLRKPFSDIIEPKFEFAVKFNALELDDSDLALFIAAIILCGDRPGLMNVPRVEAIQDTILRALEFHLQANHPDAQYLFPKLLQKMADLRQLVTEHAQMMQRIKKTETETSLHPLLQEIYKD
Test: PPAR-delta EC50, functional cell (transactivation) assay
EC50: recorded values

{"COMPOUND": "Cc1cc(S(=O)(=O)N2CCN(c3cccc(Br)c3)CC2)ccc1OC(C)(C)C(=O)O", "EC50": "< 1 µM"}
{"COMPOUND": "Cc1cc(S(=O)(=O)N2CCN(c3ccc(Cl)c(Cl)c3)CC2)ccc1OC(C)(C)C(=O)O", "EC50": "< 1 µM"}
{"COMPOUND": "Cc1cc(S(=O)(=O)N2CCN(c3cc(Cl)ccc3C)C(C)C2)ccc1OC(C)(C)C(=O)O (stereo not drawn)", "EC50": "1 to 100 µM"}
{"COMPOUND": "Cc1cc(S(=O)(=O)N2CCN(C3CCCCC3)CC2)ccc1OC(C)(C)C(=O)O", "EC50": "1 to 100 µM"}
{"COMPOUND": "CC(C)(Oc1ccc(S(=O)(=O)N2CCN(c3ccc(F)cc3)CC2)cc1)C(=O)O", "EC50": "1 to 100 µM"}
{"COMPOUND": "Cc1cc(S(=O)(=O)N2CCN(c3ccc(F)cc3)CC2)ccc1OC(C)(C)C(=O)O", "EC50": "< 1 µM"}
{"COMPOUND": "CC(C)(Oc1ccc(S(=O)(=O)N2CCN(c3ccccc3F)CC2)cc1)C(=O)O", "EC50": "1 to 100 µM"}
{"COMPOUND": "COc1ccc(N2CCN(S(=O)(=O)c3ccc(OC(C)(C)C(=O)O)c(C)c3)CC2)cc1", "EC50": "1 to 100 µM"}
{"COMPOUND": "CCOc1ccccc1N1CCN(S(=O)(=O)c2ccc(OC(C)(C)C(=O)O)c(C)c2)CC1", "EC50": "1 to 100 µM"}

----------
biological target: PPARδ (Homo sapiens); assay: PPAR-delta EC50, functional cell (transactivation) assay

{"MOLECULE": "COc1ccccc1N1CCN(S(=O)(=O)c2ccc(OC(C)(C)C(=O)O)c(C)c2)CC1", "MEASURED TARGET": "PPARδ (Homo sapiens)", "EC50": "1000 to 100000 nM"}
{"MOLECULE": "Cc1cc(S(=O)(=O)N2CCN(CC3CCCCC3)CC2)ccc1OC(C)(C)C(=O)O", "MEASURED TARGET": "PPARδ (Homo sapiens)", "EC50": "1000 to 100000 nM"}
{"MOLECULE": "Cc1cc(S(=O)(=O)N2CCN(C(c3ccccc3)c3ccccc3)CC2)ccc1OC(C)(C)C(=O)O", "MEASURED TARGET": "PPARδ (Homo sapiens)", "EC50": "1000 to 100000 nM"}
{"MOLECULE": "Cc1cc(S(=O)(=O)N2CCN(CCc3ccccc3)CC2)ccc1OC(C)(C)C(=O)O", "MEASURED TARGET": "PPARδ (Homo sapiens)", "EC50": "1000 to 100000 nM"}
{"MOLECULE": "CC(C)(Oc1ccc(S(=O)(=O)N2CCN(c3cccc(C(F)(F)F)c3)CC2)cc1)C(=O)O", "MEASURED TARGET": "PPARδ (Homo sapiens)", "EC50": "1000 to 100000 nM"}
{"MOLECULE": "Cc1cc(S(=O)(=O)N2CCN(c3ccccc3F)CC2)ccc1OC(C)(C)C(=O)O", "MEASURED TARGET": "PPARδ (Homo sapiens)", "EC50": "< 1000 nM"}
{"MOLECULE": "Cc1cc(S(=O)(=O)N2CCN(c3ccc(Cl)cc3)CC2)ccc1OC(C)(C)C(=O)O", "MEASURED TARGET": "PPARδ (Homo sapiens)", "EC50": "< 1000 nM"}
{"MOLECULE": "Cc1ccc(N2CCN(S(=O)(=O)c3ccc(OC(C)(C)C(=O)O)c(C)c3)CC2)c(C)c1", "MEASURED TARGET": "PPARδ (Homo sapiens)", "EC50": "1000 to 100000 nM"}
{"MOLECULE": "Cc1ccc(N2CCN(S(=O)(=O)c3ccc(OC(C)(C)C(=O)O)c(C)c3)CC2C)cc1C (stereo not shown)", "MEASURED TARGET": "PPARδ (Homo sapiens)", "EC50": "1000 to 100000 nM"}
{"MOLECULE": "CC(C)(Oc1ccc(S(=O)(=O)N2CCN(c3ccc(Cl)c(Cl)c3)CC2)cc1)C(=O)O", "MEASURED TARGET": "PPARδ (Homo sapiens)", "EC50": "1000 to 100000 nM"}
{"MOLECULE": "Cc1cc(S(=O)(=O)N2CCN(c3ccccc3C#N)CC2)ccc1OC(C)(C)C(=O)O", "MEASURED TARGET": "PPARδ (Homo sapiens)", "EC50": "1000 to 100000 nM"}
{"MOLECULE": "Cc1cc(S(=O)(=O)N2CCN(c3ccc([N+](=O)[O-])cc3)CC2)ccc1OC(C)(C)C(=O)O", "MEASURED TARGET": "PPARδ (Homo sapiens)", "EC50": "1000 to 100000 nM"}
{"MOLECULE": "Cc1ccc(C)c(N2CCN(S(=O)(=O)c3ccc(OC(C)(C)C(=O)O)c(C)c3)CC2)c1", "MEASURED TARGET": "PPARδ (Homo sapiens)", "EC50": "1000 to 100000 nM"}
{"MOLECULE": "Cc1cc(S(=O)(=O)N2CCN(C(c3ccc(F)cc3)c3ccc(F)cc3)CC2)ccc1OC(C)(C)C(=O)O", "MEASURED TARGET": "PPARδ (Homo sapiens)", "EC50": "1000 to 100000 nM"}
{"MOLECULE": "Cc1cc(S(=O)(=O)N2CCN(C(=O)c3ccco3)CC2)ccc1OC(C)(C)C(=O)O", "MEASURED TARGET": "PPARδ (Homo sapiens)", "EC50": "1000 to 100000 nM"}
{"MOLECULE": "Cc1cccc(N2CCN(S(=O)(=O)c3ccc(OC(C)(C)C(=O)O)c(C)c3)CC2C)c1 (stereo not shown)", "MEASURED TARGET": "PPARδ (Homo sapiens)", "EC50": "< 1000 nM"}
{"MOLECULE": "Cc1cc(S(=O)(=O)N2CCN(c3ccccc3)CC2)ccc1OC(C)(C)C(=O)O", "MEASURED TARGET": "PPARδ (Homo sapiens)", "EC50": "1000 to 100000 nM"}
{"MOLECULE": "Cc1cc(S(=O)(=O)N2CCN(c3ccc(C(C)(C)C)cc3)CC2)ccc1OC(C)(C)C(=O)O", "MEASURED TARGET": "PPARδ (Homo sapiens)", "EC50": "1000 to 100000 nM"}
{"MOLECULE": "Cc1cc(S(=O)(=O)N2CCN(c3ccccc3Cl)CC2)ccc1OC(C)(C)C(=O)O", "MEASURED TARGET": "PPARδ (Homo sapiens)", "EC50": "1000 to 100000 nM"}
